Hello, the source for this data is ChEMBL document CHEMBL1133126, in case you need it.

Listed below: Ki values for each entry.
# Tgt: Prothrombin (Homo sapiens, UniProt P00734)
# Assay Comment: Compound was evaluated for inhibition of Thrombin
Report the figure in nM without appending any unit label.

1) Cc1cc(OCc2ccc(C(=N)N)cc2)cc(OS(=O)(=O)c2ccccc2Cl)c1    110

We next turn to a different molecule, shown below.
Report Ki for `Cc1cc(OCCCCCC(=N)N)cc(OS(=O)(=O)c2ccccc2Cl)c1` please. 69

###

# Tgt: Coagulation factor X (Homo sapiens, UniProt P00742)
# Sequence (P00742 41-179 limits assumed): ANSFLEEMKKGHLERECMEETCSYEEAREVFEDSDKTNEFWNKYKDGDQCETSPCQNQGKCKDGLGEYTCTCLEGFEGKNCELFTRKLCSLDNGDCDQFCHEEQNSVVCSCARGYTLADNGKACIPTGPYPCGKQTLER
# Sequence (P00742 235-488 limits assumed): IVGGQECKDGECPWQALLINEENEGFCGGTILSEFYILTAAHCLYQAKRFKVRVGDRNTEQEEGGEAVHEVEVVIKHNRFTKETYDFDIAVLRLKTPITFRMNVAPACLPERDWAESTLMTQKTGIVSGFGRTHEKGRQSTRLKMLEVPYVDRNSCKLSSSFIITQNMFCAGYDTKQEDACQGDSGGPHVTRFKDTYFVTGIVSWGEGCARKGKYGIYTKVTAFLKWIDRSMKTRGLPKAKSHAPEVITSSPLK
Observable: pKi
pKi is a log-scale quantity: -log10 of the concentration expressed in molar.

Field: pKi (Coagulation factor X (Homo sapiens, UniProt P00742)). Entry: `Cc1cc(OCc2ccc(C(=N)N)cc2)cc(OS(=O)(=O)c2ccccc2Cl)c1` 4.77

###

# Tgt: Serine protease 1 (Bos taurus)
# Sequence (P00760 whole entry): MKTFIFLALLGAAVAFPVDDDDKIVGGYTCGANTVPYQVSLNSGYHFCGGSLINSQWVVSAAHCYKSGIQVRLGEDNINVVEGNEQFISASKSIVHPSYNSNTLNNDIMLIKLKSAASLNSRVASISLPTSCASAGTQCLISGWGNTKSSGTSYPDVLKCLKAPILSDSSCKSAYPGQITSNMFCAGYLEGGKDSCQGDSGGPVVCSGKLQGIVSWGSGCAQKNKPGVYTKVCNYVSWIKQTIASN
Observable: Ki (µM)
Report the figure in µM without appending any unit label.

Report Ki for `Cc1cc(OCCCCN=C(N)N)cc(OS(=O)(=O)c2ccccc2Cl)c1` please. 42
